All figures here come from patent US20100063008A1.

# PROCEDURE TEXT: Exudation of active agents from gel specimens to filter paper discs, quantified by UV, MS, GC and/or HPLC after extraction
# Format: physicochemical
# MEASUREMENT CONTEXT: Gel Specimen Number 1; cumulative, Time 40 h
PROPERTY NAME: Total Active Agent Exuded from Gel (µg)

Check out these entries, answers already filled in.
{"COMPOUND": "O=C(O)c1ccccc1O [Salicylic Acid, reference compound]", "EXPERIMENTAL RESULT": 12529}
{"COMPOUND": "COC(=O)c1ccccc1O [Methyl Salicylate, reference compound]", "EXPERIMENTAL RESULT": 12675}

I. CCCCCCCCCCCCCCCC(=O)OC/C=C(C)/C=C/C=C(C)/C=C/C1=C(C)CCCC1(C)C [Vit. A Palmitate, reference compound]
II. O=c1c(O)c(-c2ccc(O)c(O)c2)oc2cc(O)cc(O)c12
Qu. Of the pair I and II , name the member with the lesser recorded Total Active Agent Exuded from Gel. Write down the label attached to your selection.
Ans. II
